- Measurement Protocol: Solubility of the compound in Japanese Pharmacopoeia First Fluid of pH 1.2 by HPLC
- Format: physicochemical
Property Measured: solubility (µg/mL)

A: CN1CCc2nc(C(=O)N[C@@H]3CCCC[C@@H]3CNC(=O)c3ccc(Cl)s3)sc2C1 (relative stereo)
B: CN1CCc2nc(C(=O)Nc3ccccc3CNC(=O)c3ccc(Cl)s3)sc2C1
Exam item: Between the entries labeled A and B , whose measured solubility is lower? API: response body contains the label of the selected item.
Marked response: B
(B: 150 µg/mL, A: 800 µg/mL)

* * *

// pIC50 collected for Coagulation factor X (Homo sapiens)
pIC50: −log10 of the molar value.
Property Measured: pIC50

1: CN1CCc2nc(C(=O)N3CCCC(CNC(=O)c4ccc(Cl)s4)C3)sc2C1 (stereo not drawn)
2: CN1CCc2nc(C(=O)Nc3ncccc3CNC(=O)c3ccc(Cl)s3)sc2C1
3: CN1CCc2nc(C(=O)NCCCNC(=O)c3ccc(Cl)s3)sc2C1
Exam item: Put the items in order so that reported pIC50 rises from first to last. The labels, placed in the requested order, form the answer.
Marked response: 1, 3, 2
(1: 5.17, 3: 7.03, 2: 7.74)

* * *

- Assayed System: Coagulation factor X (Homo sapiens)
- Sequence (P00742 41-179 limits assumed): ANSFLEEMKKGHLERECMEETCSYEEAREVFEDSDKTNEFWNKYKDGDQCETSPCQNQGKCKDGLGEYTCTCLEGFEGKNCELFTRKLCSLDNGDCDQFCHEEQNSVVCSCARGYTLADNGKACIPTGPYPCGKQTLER
- Sequence (P00742 235-488 limits assumed): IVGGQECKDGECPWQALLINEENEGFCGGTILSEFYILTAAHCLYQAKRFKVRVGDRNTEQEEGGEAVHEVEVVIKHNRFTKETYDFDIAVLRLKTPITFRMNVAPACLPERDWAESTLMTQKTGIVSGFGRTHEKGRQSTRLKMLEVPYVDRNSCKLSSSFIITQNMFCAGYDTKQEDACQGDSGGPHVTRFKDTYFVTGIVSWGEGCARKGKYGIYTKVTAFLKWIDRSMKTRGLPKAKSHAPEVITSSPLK
pIC50: −log10 of the molar value.
Property Measured: pIC50

Guide cases for pIC50, answers given:
Exam item: Tell me its pIC50 on Coagulation factor X (Homo sapiens): `CN1CCc2nc(C(=O)Nc3ccccc3CNC(=O)c3cccc(Cl)c3)sc2C1`
Marked response: 5.79

Exam item: Give pIC50 only, for `CN1CCc2nc(C(=O)Nc3ccccc3CC(=O)Nc3ccc(Cl)cn3)sc2C1` , using Coagulation factor X (Homo sapiens) data.
Marked response: 6.21

Exam item: # return pIC50 for `CC(C)N1CCC(NC(=O)c2ccccc2CNC(=O)c2ccc(Cl)s2)CC1` , test system: Coagulation factor X (Homo sapiens)
Marked response: 5.71

I: CN1CCc2nc(C(=O)Nc3ccccc3CNC(=O)c3ccc(Cl)cn3)sc2C1
II: CN1CCc2nc(C(=O)Nc3cccnc3CNC(=O)c3ccc(Cl)s3)sc2C1
III: CN1CCc2nc(C(=O)Nc3ccccc3CNC(=O)c3ccc(Cl)cc3)sc2C1
Exam item: # sort list by recorded pIC50, greatest to least Answer with the labels in sequence, matching the requested order.
Marked response: II, III, I
(II: 7.96, III: 6.19, I: 5.61)

1: O=C(NCc1ccccc1C(=O)Nc1ccc(N2CCOCC2=O)cc1)c1ccc(Cl)s1
2: O=C(Nc1ccccc1CNC(=O)c1ccc(Cl)s1)c1ccc(N2CCOCC2=O)cc1
Exam item: Lab log: flag the item ( 1 or 2 ) with the smaller pIC50 figure. Which one? Tell me its label.
Marked response: 1

* * *

- Measurement Protocol: AUC (0 to 24 hrs) in serum of cynomolgus monkey at 1 mg/kg, po after 0.5 to 24 hrs
- Type: ADME, organism-based, Macaca fascicularis
- Parameters: time < 24 hr, dose 1 mg/kg, route oral
Property Measured: AUC(0-t) at 24 h (ng·h/mL)
# output: bare number, implied unit ng·h/mL

Exam item: Give the reported value of AUC(0-t) at 24 h for this record: `CN1CCc2nc(C(=O)Nc3ccccc3CNC(=O)c3ccc(Cl)s3)sc2C1.Cl`
Marked response: 697

* * *

- Measurement Protocol: Cmax in serum of cynomolgus monkey at 1 mg/kg, po after 0.5 to 24 hrs by LC/MS/MS coupled with HPLC
- Type: ADME, organism-based, Macaca fascicularis
- Design: dose 1 mg/kg, route oral
Property Measured: Cmax (ng/mL)
A number alone suffices; assume ng/mL.

Exam item: Report Cmax, nothing else, for this compound: `CN1CCc2nc(C(=O)Nc3ccccc3CNC(=O)c3ccc(Cl)s3)sc2C1.Cl`
Marked response: 83.7

* * *

- Measurement Protocol: Solubility of the compound in Japanese Pharmacopoeia First Fluid of pH 6.8 by HPLC
- Format: physicochemical
Property Measured: solubility (µg/mL)

Illustrative cases are given below, each with its answer.
Exam item: Name the recorded solubility of the item `CN1CCc2nc(C(=O)Nc3ccccc3CC(=O)Nc3ccc(Cl)cn3)sc2C1` in your answer.
Marked response: 100

Exam item: Query solubility for `CN1CCc2nc(C(=O)Nc3ccccc3CNC(=O)c3ccc(Cl)s3)sc2C1`
Marked response: 17

Exam item: Given the molecule `CN1CCc2nc(C(=O)Nc3ccccc3CNC(=O)c3cc(Cl)ccn3)sc2C1` , write its reported solubility.
Marked response: 150

a: CN1CCc2nc(C(=O)Nc3cccnc3CNC(=O)c3ccc(Cl)s3)sc2C1
b: CN1CCc2nc(NC(=O)c3ccccc3CNC(=O)c3ccc(Cl)s3)sc2C1
c: CN1CCc2nc(C(=O)Nc3ccccc3CNC(=O)c3ccc(Cl)[nH]3)sc2C1
Exam item: // ranking: key=solubility, reverse=True Answer format: list of labels, ordered as asked.
Marked response: b, a, c
(b: 100 µg/mL, a: 67 µg/mL, c: 33 µg/mL)

P: CN1CCc2nc(C(=O)N[C@@H]3CCCC[C@@H]3CNC(=O)c3ccc(Cl)s3)sc2C1 (relative stereo)
Q: CN1CCc2nc(C(=O)Nc3ccccc3CNC(=O)c3cc(Cl)c[nH]3)sc2C1
Exam item: Among P and Q , which shows a numerically higher solubility result? To answer, give the label that identifies your chosen option.
Marked response: P

* * *

- Measurement Protocol: Distribution coefficient, log D of the compound at pH 7.4 by LC-MS
- Format: physicochemical
- Condition Summary: octanol/water
Property Measured: logD

Exam item: // fetch logD given entry `CN1CCc2nc(C(=O)Nc3ccccc3CNC(=O)c3cc(Cl)ccn3)sc2C1`
Marked response: 2.7

Exam item: Identify the reported logD for the following entry. `CN1CCc2nc(C(=O)Nc3ccccc3CNC(=O)c3ccc(Cl)cn3)sc2C1`
Marked response: 2.8

Exam item: Specify reported logD for the compound shown: `CN1CCc2nc(C(=O)Nc3ccccc3CNC(=O)c3ccc(Cl)[nH]3)sc2C1`
Marked response: 3.1

Exam item: Let me know recorded logD for `O=C(Nc1ccccc1CNC(=O)c1ccc(Cl)s1)c1ccc(N2CCOCC2=O)cc1` , thanks.
Marked response: 2.8

Exam item: # return recorded logD for entry `CN1CCc2nc(C(=O)Nc3ccccc3CNC(=O)c3cccc(Cl)c3)sc2C1`
Marked response: 3.3

Exam item: Fill in logD for record `CN1CCc2nc(C(=O)Nc3cccnc3CNC(=O)c3ccc(Cl)s3)sc2C1`
Marked response: 2.8

* * *

- Measurement Protocol: Solubility of the compound in Japanese Pharmacopoeia First Fluid of pH 1.2 by HPLC
- Assay type: physicochemical
Property Measured: solubility (µg/mL)

Exam item: Give recorded solubility. `CN1CCc2nc(C(=O)Nc3cccnc3CNC(=O)c3ccc(Cl)s3)sc2C1`
Marked response: 890

Exam item: Provide measured solubility value, entry: `O=C(NCc1ccccc1C(=O)Nc1ccc(N2CCOCC2=O)cc1)c1ccc(Cl)s1`
Marked response: 140

Exam item: Find the measured solubility of `CN1CCc2nc(C(=O)Nc3ncccc3CNC(=O)c3ccc(Cl)s3)sc2C1` and report it.
Marked response: 860

A: CN1CCc2nc(C(=O)Nc3ccccc3CNC(=O)c3cc(Cl)c[nH]3)sc2C1
B: CN1CCc2nc(C(=O)Nc3ccccc3CNC(=O)c3ccc(Cl)cn3)sc2C1
Exam item: Please choose the item with the lower solubility value from this pair: A and B # answer = label of selected item
Marked response: B
(B: 350 µg/mL, A: 690 µg/mL)

* * *

Here, each record is paired with measured solubility data.
- Measurement Protocol: Solubility of the compound in Japanese Pharmacopoeia First Fluid of pH 6.8 by HPLC
- Format: physicochemical

Exam item: Quickly give me recorded solubility for `CN1CCc2nc(C(=O)Nc3ccncc3CNC(=O)c3ccc(Cl)s3)sc2C1`
Marked response: > 4.9 µg/mL

Exam item: Output measured solubility for this item: `CC(C)N1CCC(NC(=O)c2ccccc2CNC(=O)c2ccc(Cl)s2)CC1`
Marked response: > 820 µg/mL

Moving on to another molecule below.
Exam item: Name the recorded solubility of the item `O=C(Nc1ccccc1CNC(=O)c1ccc(Cl)s1)c1ccc(N2CCOCC2=O)cc1` in your answer.
Marked response: < 2.3 µg/mL

* * *

- Measurement Protocol: Solubility of the compound in Japanese Pharmacopoeia First Fluid of pH 1.2 by HPLC
- Assay type: physicochemical
Property Measured: solubility (µg/mL)

Example cases with answers are listed next.
Exam item: Give reported solubility value for `CN1CCc2nc(C(=O)Nc3ccncc3CNC(=O)c3ccc(Cl)s3)sc2C1`
Marked response: 880

Exam item: Kindly indicate its recorded solubility. Item: `CN1CCc2nc(C(=O)Nc3ccccc3CNC(=O)c3cc(Cl)ccn3)sc2C1`
Marked response: 760

a: CC(C)N1CCC(NC(=O)c2ccccc2CNC(=O)c2ccc(Cl)s2)CC1
b: CN1CCc2nc(C(=O)Nc3ccccc3CNC(=O)c3ccc(Cl)cc3)sc2C1
Exam item: Pick one: a or b . Which one has the lower reported solubility? Record your answer as the label of the chosen record.
Marked response: b
